Source listed as the supplement of paper PMC10567573.

B1: SNX8 (parent)
chain: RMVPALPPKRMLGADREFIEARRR

Variants of: B1
ASSAY: protein stability index of a GFP-peptide fusion (GPS, HEK-293T) (PSI 1-6); higher = more stable;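 further: lentivirally expressed fusions sorted by FACS into six bins by GFP to DsRed ratio, PSI derived from sequencing read proportions per bin multiplied by bin number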
CONDITION LABEL: c terminus: a fixed tail appended
REPORTED PROPERTY: protein stability index
Quick one: just the number, no unit, thanks!

GET /values?readout=protein stability index&item= A14I 3.54

Entry under review: I19H . Reported protein stability index? 3.35

Would you kindly share the measured protein stability index for P7I ? 3.62

Looking for the measured protein stability index of R1N , can you help? 2.71

So what does the record say about protein stability index for P7K ? 3.91

What value of protein stability index has been reported for the following variant? R1A 3.86

Consider the variant shown here: P7E What is its recorded protein stability index? 4.35

protein stability index for F18G ? 4.57

# lookup: protein stability index of E17R 4.1

Bench note: what protein stability index did R16E show? 4.41

Which protein stability index reading was recorded for the variant P7V ? 4.05

Consider the variant R10S and give its measured protein stability index. 4.05

// lookup protein stability index for A21Q 3.61

Could you share which protein stability index value was measured for R23A ? 2.54

Look up protein stability index for this variant: A5D 4.23

Give its protein stability index value. Item: R16M 3.55

Please look up its protein stability index: E20D 4.31
